Documented EC50 across a set of molecules
Test system: human norovirus (HuNoV)
Assay: Inhibition of in vitro replication of genogroup 1 NoV in HG23 NoV replicon cells (qRT-PCR of intracellular RNA)
Format: cell-based
Details: Norovirus, HG23, read-out: EC50 (effective concentration to inhibit the replication of the virus by 50%), HuNoV, HG23 NoV replicon cells
Give the value in nM but do not write nM after it.

>>> recorded_result("CCc1ncnc2c1ccn2[C@@H]1O[C@H](CO)[C@@H](O)[C@H]1O [Compound 11d]")
23
>>> recorded_result("OC[C@H]1O[C@@H](n2ccc3c(C4CCCCC4)ncnc32)[C@H](O)[C@@H]1O [Compound 11l]")
180
>>> recorded_result("Cc1ncnc2c1ccn2[C@@H]1O[C@H](CO)[C@@H](O)[C@H]1O [Compound 11b]")
12
>>> recorded_result("CC(C)c1ncnc2c1ccn2[C@@H]1O[C@H](CO)[C@@H](O)[C@H]1O [Compound 11c]")
24
>>> recorded_result("CCCc1ncnc2c1ccn2[C@@H]1O[C@H](CO)[C@@H](O)[C@H]1O [Compound 11e]")
16

Ask: // lookup EC50 for CCCCCc1ncnc2c1ccn2[C@@H]1O[C@H](CO)[C@@H](O)[C@H]1O [Compound 11f]
Result: 84
